- tgt: T1, human CD22-ECD-His protein (human, UniProt P20273 20-687)
- T1 construct: Made in house in HEK293E; also called hCD22-ECD-His; recombinant human CD22-ECD His protein; not shown: His tag
- T1 sequence: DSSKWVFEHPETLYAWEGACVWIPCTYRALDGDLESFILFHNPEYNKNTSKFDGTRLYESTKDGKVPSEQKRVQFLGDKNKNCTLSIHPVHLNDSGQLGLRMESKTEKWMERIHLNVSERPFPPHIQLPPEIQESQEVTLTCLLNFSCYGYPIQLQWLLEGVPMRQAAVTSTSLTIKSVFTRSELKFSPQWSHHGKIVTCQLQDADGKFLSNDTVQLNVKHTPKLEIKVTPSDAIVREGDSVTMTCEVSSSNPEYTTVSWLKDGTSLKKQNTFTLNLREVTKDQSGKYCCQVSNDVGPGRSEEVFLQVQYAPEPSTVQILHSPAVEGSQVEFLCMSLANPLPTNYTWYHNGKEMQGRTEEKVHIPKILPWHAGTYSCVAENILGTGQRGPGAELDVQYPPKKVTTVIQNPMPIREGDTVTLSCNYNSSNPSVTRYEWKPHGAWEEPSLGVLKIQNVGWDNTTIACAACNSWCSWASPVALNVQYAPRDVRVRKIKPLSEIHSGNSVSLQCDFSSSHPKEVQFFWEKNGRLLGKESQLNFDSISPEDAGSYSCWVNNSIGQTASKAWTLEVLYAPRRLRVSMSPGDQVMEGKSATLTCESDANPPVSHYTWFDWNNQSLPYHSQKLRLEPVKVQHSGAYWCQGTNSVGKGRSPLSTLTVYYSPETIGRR
- methodDescription: ELISA, human CD22-ECD-His coated
Consider the following binders and their measured EC50 (read off the curve) readings.

Worked set:
>  <binder>
F2.55.1 (antibody, human IgG1, lambda, V domains shown, Human-murine chimeric IgG1, lambda) VH: QVTLKESGPGILQPSQTLSLTCSFSGFSLSTFPLGVGWIRQPSGKGLEWLAHVWWNDDDYYNPALKSRLTISKDTSNTRVFLSVASVDTAETATYYCARLNWDRWYFDVWGTGTTVTVSS VL: QLVLTQSSSASFSLGASAKLTCTLSSQHSAYTVEWYQQQPLKPPKYVMELKKDGSHSTGDGIPDRFSGSSSGADRYLSISNIQPEDEAIYICGVGDTVKEQFVFGGGTKVTVLG

>  <EC50 (read off the curve)>
~0.06 nM

$$$$
>  <binder>
F1.257.3 (antibody, human IgG1, kappa, V domains shown, Human-murine chimeric IgG1, kappa) VH: QVQLQQSGPELARPGASVKLSCKASGYTFTSYGISWVKQRTGQDLEWIGEIYPKLGTTYYNEKFKDKATLTTDRSSSTAYMALRSLTSEDSAVYFCACPHYYATRGGDYWGQGTTLTVSS VL: EIVLTQSPATLSVTPGDSVTFSCRASQSISNHLHWYQQKSHESPRLLIRYASQSISGIPSRFSGSGSGTDFTLSLSSVETEDFGVYFCQQSHSWPYTFGGGTKLEIAR

>  <EC50 (read off the curve)>
~0.06 nM

$$$$

binder F2.104.10 (antibody, human IgG1, lambda, V domains shown, Human-murine chimeric IgG1, lambda) VH: EVQLVESGGGFVKPGGSLKLSCAASGFTFSDYGMNWFRQAPEKGLEWVAYISRGSHTIYYADTVKGRFTISRDNAENTLFLQMTSLRSNDTAMYYCVRMAGYYAMDYWGQGTSLTVSS VL: QLVLTQSSSASFSLGASAKLTCTLSSQHSSYIIEWYQQQPLKPPKYVMEVKKDGSHSTGDGIPDRFSGSSSGADRYLSISNIQSEDEAIYICGVGDTIKEQFVYVFGGGTKVTVLG , EC50 (read off the curve) observed: ~0.03 nM

binder HA22-hIgG1 (antibody, V domains shown) VH: EVQLVESGGGLVKPGGSLKLSCAASGFAFSIYDMSWVRQTPEKCLEWVAYISSGGGTTYYPDTVKGRFTISRDNAKNTLYLQMSSLKSEDTAMYYCARHSGYGTHWGVLFAYWGQGTLVTVSA VL: DIQMTQTTSSLSASLGDRVTISCRASQDISNYLNWYQQKPDGTVKLLIYYTSILHSGVPSRFSGSGSGTDYSLTISNLEQEDFATYFCQQGNTLPWTFGCGTKLEIKR , EC50 (read off the curve) observed: ~0.02 nM

binder F1.62.10 (antibody, human IgG1, kappa, V domains shown, Human-murine chimeric IgG1, kappa) VH: QVQLQQSGPELVKPGASVKISCKASGYEFSSIWMNWVKQRPGEGLEWIGRIFPGDGEINYNEKFKGKATLTADRSSTTAYMQLSSLTSEDSAVYFCAGWRIYYGTYGAMDYWGQGTSVTVSS VL: DIQMTQITSSLSASLGDRVTISCRASQDIGNYLNWYQQKPDGTVKLLIYYTSRLHSGVPSRFSGSGSRTDYSLTISNLQQEDIATYFCQQGNTLPWTFGGGTKLEIKR , EC50 (read off the curve) observed: ~0.02 nM

binder F1.216.2 (antibody, human IgG1, kappa, V domains shown, Human-murine chimeric IgG1, kappa) VH: QVQLQQSGPEVVRPGASVKISCKASGYAFSSSWMNWMKQRPGKALEWIGRIYPGDGDTNYSGEFKVKATLTADKSSSTAYMQLSSLTSEDSAVYFCAREGSYYSNPWYFDYWGQGTTLTVSS VL: DVLVTQTPLSLPVSLGDQASISCRSSQSIVQSNGDTYLEWYLQKPGQSPKLLIYKVSNRFSGVPDRFSGSGSGTDFTLKISRVEAEDLGVYYCFQGSHVPFTFGSGTKLEIKR , EC50 (read off the curve) observed: ~0.006 nM

binder F2.205.9 (antibody, human IgG1, lambda, V domains shown, Human-murine chimeric IgG1, lambda) VH: QVTLKESGPGILQPSQTLSLTCSFSGFSLSTSGMGVGWIRQPSGKGLEWLAHIWWDDDEYYNPALKSRLTISKDTSKNQVFLKIANVDTADTATYYCARISIPYGYYDWFFDVWGTGTTVTVSA VL: QAVVTQESALTTSPGETVTLTCRSSTGAVTTRNYANWVQEKPDHLFTGLIGGTNNRAPGVPARFSGSLIGDKAALTITGAQTEDEAIYFCALWYSNHFIFGSGTKVTVLG , EC50 (read off the curve) observed: ~0.06 nM

binder F2.151.13 (antibody, human IgG1, lambda, V domains shown, Human-murine chimeric IgG1, lambda) VH: QVHLQQPGTELMKPGASVKLSCKATGYTFRDYWLEWVKQRPGHGLEWIGEILPGSGNAYYNEKFKGKATFTADTSSNTAYMQLSSLTTEDSAIYYCARVYSNWYFDAWGKGTTVTVSS VL: QAVVTQESALTTSPGETVTLTCRSSTGAVTTSNYANWVQEKPDHLFTGLIGGTNNQAPGVPARFSGSLIGDKAALTISGAQTEDEAIYFCALWFSNHWVFGGGTKLTVLG , EC50 (read off the curve) observed: ~0.04 nM

binder F1.250.16 (antibody, human IgG1, kappa, V domains shown, Human-murine chimeric IgG1, kappa) VH: QVQLQQSGAEQVKPGASVKMSCKASGYTFTTYPIEWMKQNHGESLDWIGNIHPYNDDTEYNEKFKGKATLTVEKSSNTVFLELSRLTSDDSAVYYCVRGDYYNSRYWYFDVWGTGTTVTVSS VL: DIVMTQSQKFMSTTVGDRVSITCKAGQNVRTAVAWYQQKPGQSPKLLIYSASTRYIGVPERFTGSGSGTDFTLTITNMQSEDLADYFCQQYSSFPLTFGTGTKLELKR , EC50 (read off the curve) observed: ~0.02 nM

binder F1.120.15 (antibody, human IgG1, kappa, V domains shown, Human-murine chimeric IgG1, kappa) VH: QVQLQQSGPELVKPGASVKISCKASGNAFSNSWMNWVKQRPGKGLEWIGRVYSEDGDTQYNGKFRDKATLTADRSTSTAYMQLSSLTSEDSAVYFCARWLIYYGTYGAMDYWGQGTSVTVSS VL: DIQMTQTTSSLSASLGDRVTISCRASQDINNYLNWYHQKPDGTVKLLIYFTSRPYSGVPSRFSGSGSGTDYSLTISNLEQEDIATYFCQQGNTLPWTFGGGTKLEIKR , EC50 (read off the curve) observed: ~0.02 nM
